The entries below come with measured melting point values attached.

Sample records with melting point:
CCOC(=O)C(C(=O)OCC)c1n[nH]c(C)c1[N+](=O)[O-] : 100 to 102 °C
COCOc1ccc(OCc2ccccc2)c(CBr)c1 : 55 to 57 °C
COc1ccc(C2(C3CCCCC3=O)CCC(=O)CC2)c2c1OCCO2 (stereo not given) : 268 to 269 °C
CSC(=C[N+](=O)[O-])NCCSCc1ncccc1Br : 79 to 80 °C
O=C(Cn1ccnc1)c1cccs1 : 87 to 89 °C

Exercise: Please give the measured melting point for this compound: `CS(=O)(=O)c1ccc(-c2cc(COCCO[N+](=O)[O-])nn2CC2CCCCC2)cc1`
Solution: 98 to 100 °C

Exercise: Can you look up the measured melting point of Cc1ccccc1C(CCC(=O)O)Oc1cc(OCc2cccc(C(=O)O)c2)ccc1[N+](=O)[O-] (racemic) for me?
Solution: 85 to 87 °C

Exercise: Any idea what its melting point is? The compound is `O=C1c2ccc([N+](=O)[O-])cc2C(=O)c2c(O)ccc(O)c21`
Solution: 226 to 228 °C

Exercise: Query: melting point; subject: `CCN(CC)S(=O)(=O)c1cc2[nH]c(=O)c(=O)[nH]c2cc1[N+](=O)[O-]`
Solution: > 360 °C

Exercise: Endpoint output: melting point of `CS(=O)(=O)Nc1ccc(C(=O)O)cc1Oc1ccc(F)cc1F` . Value?
Solution: 167 to 169 °C

Exercise: Item under review: `CCc1nc(/C=C/c2cn(-c3ccccc3)nc2OCc2ccc(OCc3nc(-c4ccc(CC(=O)O)cc4)oc3C)c(OC)c2)co1` . Reported melting point?
Solution: 117 to 119 °C

Hey, just so you know, these numbers are from a melting point compilation (Tetko et al.; mined from patent text by program, amines drawn as free bases though some values may be those of a salt).
